Compiled from multiple publications: pIC50 readings for Cytochrome P450 1A2 (Homo sapiens, UniProt P05177).
Molecular target: Cytochrome P450 1A2 (Homo sapiens, UniProt P05177)
Sequence (P05177 whole entry): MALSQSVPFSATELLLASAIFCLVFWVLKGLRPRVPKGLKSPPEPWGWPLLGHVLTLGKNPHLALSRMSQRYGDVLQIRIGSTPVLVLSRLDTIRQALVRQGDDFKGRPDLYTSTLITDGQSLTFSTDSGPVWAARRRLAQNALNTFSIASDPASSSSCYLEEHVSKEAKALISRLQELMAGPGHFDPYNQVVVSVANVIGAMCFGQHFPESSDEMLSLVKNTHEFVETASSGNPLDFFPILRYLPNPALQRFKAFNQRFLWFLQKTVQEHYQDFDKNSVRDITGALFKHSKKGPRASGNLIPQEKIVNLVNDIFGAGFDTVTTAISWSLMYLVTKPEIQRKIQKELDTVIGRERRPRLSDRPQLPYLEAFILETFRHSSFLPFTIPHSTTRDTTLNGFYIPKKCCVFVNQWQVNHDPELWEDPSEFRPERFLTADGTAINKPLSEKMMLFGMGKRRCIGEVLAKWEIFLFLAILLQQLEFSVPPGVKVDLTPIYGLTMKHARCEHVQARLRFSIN
pIC50: −log10 of the molar value.

Consider the reported pIC50 for these compounds:
COc1cc(CC(=O)N2CCC(NC(=O)NCc3ccc(OC(F)(F)F)cc3)CC2)cc(OC)c1 : < 4.30
Cn1cnc2ccc(-c3nc4ccc(C5CC5)cc4n(-c4ccc(OC(F)F)cc4)c3=O)cc21 : < 4.52
CNC(=O)c1ccccc1Nc1nc(Nc2ccc(OCCF)cc2)ncc1Br : 4.58
COc1ccccc1[C@H](Cn1c(=O)n(C(C)(C)C(=O)O)c(=O)c2c(C)c(-c3ncco3)sc21)OC1CCOCC1 : < 4.52
CC(C)(C)c1cc(NC(=O)Nc2ccc(C#Cc3ccc(OCCCN4CCOCC4)cc3)cc2)no1 : < 4.48
CC(C)(N)C(=O)N[C@H](COCc1ccccc1)C(=O)N1CCC2=NN(C3CC3)C(=O)[C@]2(Cc2ccccc2)C1 : < 4.52
Cc1ncsc1-c1ccc([C@H](CN2CCOCC2)NC(=O)[C@@H]2C[C@@H](O)CN2C(=O)[C@@H](n2cc([C@H]3CC[C@H](CN4CCC(c5ccc6c(c5)-n5c(nc(=O)c7c(Cl)cccc75)C65CCCCC5)CC4)CC3)nn2)C(C)(C)C)cc1 : < 4.00
[2H]C([2H])([2H])NC1=NC(=O)[C@]2(CCc3ncccc32)c2cc(C(C)(F)F)ccc21 : < 5.00

[Q] Need pIC50 of CCc1cnc(N2CCC(COc3ccc(C4=CC[C@H](C(=O)N5CCC[C@@H]5CO)CC4)cc3)CC2)nc1 , thanks.
[A] < 5.00

[Q] Could you share which pIC50 value was measured for Cc1cnc(-c2nc3c(F)c(-c4cccc(Cl)c4C)c(CCC#N)cc3c3c2cc([C@@H](C)N2CCOCC2=O)n3[C@H]2[C@H]3CN[C@@H]2C3)cn1 ?
[A] < 4.70

[Q] Which pIC50 value belongs to C=CC(=O)N1CCc2c(ncnc2N2CC[C@@H](Nc3ncc(Cl)c(OC)n3)C2)C1 ?
[A] < 4.30

[Q] Fill in: pIC50 of COc1nc(-c2cc(-c3cnn(C)c3)cnc2N)cc2c1C(=O)N(CC(F)(F)F)CC2 is ___
[A] < 4.30

[Q] Requested read-out: pIC50. Entry: C[C@@H](n1cc(-c2cncc(N(C)C)c2)nn1)n1ccc(N2CCC[C@@H](NCC3CC3)C2)cc1=O
[A] < 4.00

---

Kindly find below pIC50 information for Cytochrome P450 1A2 (Homo sapiens, UniProt P05177) taken from the literature.
pIC50: −log10 of the molar value.

Example results:
[2H]C([2H])([2H])NC1=NC(=O)[C@]2(CCc3ncccc32)c2cc(C(F)(F)F)ccc21 : < 5.00
O=C(O)c1ccc2nc(Cc3ccc(-c4ccc(F)c(OCc5ccc(Cl)c6ccoc56)n4)cc3F)n(C[C@@H]3CCO3)c2c1 : < 4.52

Here is another compound to look at.
[Q] Recorded pIC50 for CCOC(=O)c1c(C2CN(c3cc(C(=O)NCCN(CC)CC)c4ccccc4n3)C2)nc2ccccn12 , please?
[A] < 4.52
